assayComment: yeast display, Sf9 membrane polyspecificity reagent, FACS + sequencing; frameworks hold sequencing errors
valueType: polyreactivity (PSR sort gate)

>  <sequenceEntry>
QVQLVESGGGLVQAGGSLRLSCAASGFIYYRYAMGWYRQAPGKERELVAAISRSGGSTYYADSVKGRFTISRDNAKNTVYLQMNSLNPEDTAVYYCAARDPGGAVGAAFDSWGQCTQVTVSS

>  <measuredValue>
low polyreactivity

$$$$
>  <sequenceEntry>
QVHLVESGGGLVQAGGSLRLSCAASGRTFSTYAMGWYRQAPGTERELVAAISSGGGRTYYADSVKGRFTISRDNAKNTVYLQMNRLKPEDTAVYYCAADRYFRSSRSYEYWGQGTLVTVSS

>  <measuredValue>
low polyreactivity

$$$$
>  <sequenceEntry>
QVQLVESGGGLVQAGGSLRLSCAASGRTFPYYAMGWYRQAPGKERELVAAISSSGGSTYYADSVKGRFTISRDNAKYTVYLQMNSLKPEDTAVYYCAAVYQFIKWGDRYEYWGQGTQVTVSS

>  <measuredValue>
high polyreactivity

$$$$
>  <sequenceEntry>
QVQLVESGGGLVQAGGSLRLSCAASGYIFGWYAMGWYRQAPGKERELVATIDWSGDSTYYADSVKGRFTISRDNAKNTVYLQMNSLKPEDTAVYYCAVGYSYYPSDEFDYWGQGTQVTVSS

>  <measuredValue>
low polyreactivity

$$$$
>  <sequenceEntry>
QVQLVESGGGLVQAGGSLRLSCAASGRIFLYNDMGWYRQAPGKERELVATITWNVTSTYYADSVKGRFTISRDNAKYTVYLQLNSLKPEDTAVYYCARGDHVGSAGYDYWGQGTQVTVSS

>  <measuredValue>
low polyreactivity

$$$$
>  <sequenceEntry>
QVQLVESGGGLVQAGGSLRLSCAASGFTLVGYAMGWYRQAPGKERELVAAISSGGRTKYADSVKGRFTFSRDNAKNTVYLQMNSLKPEDTAVYYCKAVFTRGVTQYDHYYWGQGTQVTVSS

>  <measuredValue>
high polyreactivity

$$$$
>  <sequenceEntry>
QVQLEESGGGLVQEGGSLRLSCADSGFTLWLNAMGWYRQAPGKERELVAAITTSDDGTYYADSVKGRFTISRDNAKNSVYLQMNSMKPEDTAVYYCAADYYSVLYDYWVQGTQVTVSS

>  <measuredValue>
low polyreactivity

$$$$

---

assayComment: yeast display, Sf9 membrane polyspecificity reagent, FACS + sequencing; frameworks hold sequencing errors

>  <sequenceEntry>
QVQLVESDGGLVQAGGSLRLSCAASGIIFGYYVMGWYRPAPGKERELVASITSGGSTNYADSVKGRFTISRDNAKNTVYFQMNSLKPEDTAVYYCAAEERTDTIPGWRYPHDYWGQGTQVTVSS

>  <polyreactivity (PSR sort gate)>
low polyreactivity

$$$$
>  <sequenceEntry>
QVQLVESGGGLVQAGGSLRLSCAASGSIFRYYAMGWYRQAPGKEREFVASITYRGGRTYYADSVKGRFTISRDNAKNTVYLQMNSLKPEDTAVYYCAARTRAGAWTSKYLDYWGQGTQVTVSS

>  <polyreactivity (PSR sort gate)>
high polyreactivity

$$$$
>  <sequenceEntry>
QVQLVESGGGLVQAGGSLRLSCAASGFTLNAYAMGWYRQAPGKERELVAAISRNGGRTYYADSVKGRFTISRDNAKNTVYLQMNSLKPEDTAVYYCNAVSGTIARPYDPYDYWGQGTQVTVSS

>  <polyreactivity (PSR sort gate)>
high polyreactivity

$$$$
>  <sequenceEntry>
QVQLVESGGGLVQAGGSLRLSCAASGRIFYGYAMGWYRQAPGKERELVAAITRGVSTYYADSVKGRFTISRDNAKNTVYLQMNSLKPEDTAVYYCAKDRRVRMDSWGQGTQVTVSS

>  <polyreactivity (PSR sort gate)>
low polyreactivity

$$$$
>  <sequenceEntry>
QVQHVESGGGLLQAGGSLRLTCTASRSIFPYYAMGWYRQATGKERELVAAISSSGARTYYADSVKGRFTISRDNAKNTVYLQMNSLKPEDTGFYYCNSDTIRYRTYGRYAWYNYWGQGTQVTVSS

>  <polyreactivity (PSR sort gate)>
high polyreactivity

$$$$
>  <sequenceEntry>
QVQLVESGGGLVQAGGSLRLSCAASGRIFFLYAMGWYRQAPGKERELVAAITKSGGSTYADSVKGRFTISLDNAKNTVYLQMNSLKPVDTAVYYCATENTECRDSGYIVKYGSDYWGQGTQVTVSS

>  <polyreactivity (PSR sort gate)>
low polyreactivity

$$$$
>  <sequenceEntry>
QVQLVESGGGLVQAGGSLRLSCAASGFTFLVYAMGWYRQAPGKERELVAAITWSGDSTYYADSVKGRFTISRDNAKNTVYLQMNSLKPEDTAVYYCAAAYRYGTLYYYWGQGTQVTGSS

>  <polyreactivity (PSR sort gate)>
low polyreactivity

$$$$
>  <sequenceEntry>
QVHLVDSGGGLVQAGGSLRLSSAASGRIFPFYAMGWYRKAPGKERELVAAITSSGGRTYYADSVKGRFTISRDNAKNTVYLQMNSLKPEDTAVYYCAASLVGPFIYSHLYDYWGQGTQVTVSS

>  <polyreactivity (PSR sort gate)>
low polyreactivity

$$$$
>  <sequenceEntry>
QVQLVESGGGLVQAGGSLRLSCAASGSTFRYYTMGWYRQAPGKERELVARISRSGGSTYYADSVKGRFTISRDNAKNTVYLQMNSLKPEDTAVYYCAALYYVKPGQRYDYWGQGTQVTVSS

>  <polyreactivity (PSR sort gate)>
high polyreactivity

$$$$
>  <sequenceEntry>
QVQLVESGGGLVQAGGSLRLSCAASGITFYFYTMGWYRQAPGKERELVAAISRGGGSTYYADSVKGRFTISRDNAKNTVYLQMNSLKPEDTAVYYCAADYKPHYYHDDYWGQGTQVTVSS

>  <polyreactivity (PSR sort gate)>
low polyreactivity

$$$$
>  <sequenceEntry>
QVQLEDSGGCLVQAGGRLRLSCAASGITYGRNTMGRYRQAPGKERELVAAIDSGGNTYADSVKGRFTISRDNAKITVYLQMNSLKPEDTAVYYCAVYGGEFSSYGYWGQGTQVTVSS

>  <polyreactivity (PSR sort gate)>
low polyreactivity

$$$$
>  <sequenceEntry>
QVQLVESGGGLVQAGGSLRLSCAASGRTFRYYTMGWYRQAPGKERQFVAAISSTGGTYYADSVKGRFTISRDNAKNTVYLQMNSLKPADTAVYYCAATFIQVVVNVQLYDYDYWGQGTQVTVSS

>  <polyreactivity (PSR sort gate)>
low polyreactivity

$$$$

Reference for the values: the nanobody polyreactivity screen of Harvey et al. (2022)
